B1: C1orf137 (parent)
chain: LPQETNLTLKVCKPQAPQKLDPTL

# Variants of: B1
# EXPERIMENT NOTES: protein stability index of a GFP-peptide fusion (GPS, HEK-293T) (PSI 1-6); higher = more stable;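 also: lentivirally expressed fusions sorted by FACS into six bins by GFP to DsRed ratio, PSI derived from sequencing read proportions per bin multiplied by bin number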
# CONDITION DESCRIPTION: c terminus: a fixed tail appended
Measured protein stability index values are reported for all entries that follow.
Answer as a number with no unit attached.

Use the examples below as a reference point.
1) T8K | 3.57
2) V11R | 3.05
3) Q3G | 3.63
4) P22F | 2.35
5) Q3C | 4.12
6) V11Q | 3.32

# input I have this variant here, "T5Y" , and I need its recorded protein stability index.
# output 2.88
